Target: UniProt:P29274
Sequence (P29274 whole entry): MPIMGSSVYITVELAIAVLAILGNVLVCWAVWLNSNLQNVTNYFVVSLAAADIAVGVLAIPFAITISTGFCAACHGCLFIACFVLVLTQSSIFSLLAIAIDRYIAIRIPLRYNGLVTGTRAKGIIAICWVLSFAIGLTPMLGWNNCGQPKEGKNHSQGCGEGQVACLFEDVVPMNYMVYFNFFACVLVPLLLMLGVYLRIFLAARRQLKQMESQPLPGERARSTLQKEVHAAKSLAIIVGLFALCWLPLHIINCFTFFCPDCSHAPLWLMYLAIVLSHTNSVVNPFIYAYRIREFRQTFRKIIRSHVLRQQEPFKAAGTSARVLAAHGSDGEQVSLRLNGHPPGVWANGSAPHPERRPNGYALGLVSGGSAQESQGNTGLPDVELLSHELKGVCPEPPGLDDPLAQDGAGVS
Assay: Displacement of [3H]ZM-241385 from recombinant human adenosine A2A receptor expressed in HeLa cells at 0.1 uM
readout_label: inhibition (%)

CCCn1c(=O)c2[nH]c(-c3ccc(OCC(=O)Nc4ccccc4)cc3)cc2n(CCC)c1=O | 6
Cn1c(=O)c2[nH]c(-c3ccc(OCC(=O)NCc4ccccc4)cc3)cc2n(C)c1=O | 25
CCCn1c(=O)c2[nH]c(-c3ccc(OCC(=O)Nc4ccc(CC#N)cc4)cc3)cc2n(CCC)c1=O | 46
CCCn1c(=O)c2[nH]c(-c3ccc(OCC(=O)Nc4ccc(C(C)=O)cc4)cc3)cc2n(CCC)c1=O | 15
CCCn1c(=O)c2[nH]c(-c3ccc(OCC(=O)NCc4ccccc4)cc3)c(Cl)c2n(CCC)c1=O | 43

P: CCCn1c(=O)c2[nH]c(-c3ccc(OCC(=O)Nc4ccccc4O)cc3)cc2n(CCC)c1=O
Q: CCCn1c(=O)c2[nH]c(-c3ccc(OCC(=O)Nc4ccc(CS(=O)(=O)N5CCCC5)cc4)cc3)cc2n(CCC)c1=O
R: Cn1c(=O)c2[nH]c(-c3cccc(OCC(=O)Nc4ccc(Br)cc4)c3)cc2n(C)c1=O
Q: Returns the items ordered by inhibition, from maximum to minimum. # format: label list in the order the request specifies
Ans: P, R, Q
(P: 82%, R: 45%, Q: 31%)

a: CCCn1c(=O)c2[nH]c(-c3ccc(OC(C)(C)C(=O)O)cc3)cc2n(CCC)c1=O
b: COc1cc(NC(=O)COc2ccc(-c3cc4c([nH]3)c(=O)n(C)c(=O)n4C)cc2)nc(OC)n1
Q: Which is greater in inhibition, the first item a or the second item b ? Field: selected label. Fill in the label of the entry you choose.
Ans: b

I: CCn1c(=O)c2[nH]c(-c3ccc(OCC(=O)Nc4ccccc4)cc3)cc2n(CC)c1=O
II: CCCn1c(=O)c2[nH]c(-c3ccc(OCC(=O)Nc4ccc(-c5ccccc5)cc4)cc3)cc2n(CCC)c1=O
III: CCCn1c(=O)c2[nH]c(-c3ccc(OCC(=O)Nc4ccc(C=O)cc4)cc3)cc2n(CCC)c1=O
IV: CC(C)Cn1c(=O)c2[nH]c(-c3ccc(OCC(=O)O)cc3)cc2n(C)c1=O
Q: Ascending sort, inhibition. Sort and list the labels as requested.
Ans: IV, III, I, II
(IV: 1%, III: 13%, I: 22%, II: 36%)

Hello, the source for this data is ChEMBL document CHEMBL1148617, in case you need it.
